assayed_target: KRAS G12D binding to BRAF (Homo sapiens, UniProt P01116+P62937, G12D)
Sequence (P01116 1-188 isoform P01116-2 G12D): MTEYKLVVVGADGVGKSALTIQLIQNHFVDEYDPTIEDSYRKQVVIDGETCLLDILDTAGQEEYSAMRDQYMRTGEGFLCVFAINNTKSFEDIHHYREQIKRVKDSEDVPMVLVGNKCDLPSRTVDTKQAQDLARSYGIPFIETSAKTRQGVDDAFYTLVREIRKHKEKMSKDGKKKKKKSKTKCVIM
Sequence (P62937 whole entry): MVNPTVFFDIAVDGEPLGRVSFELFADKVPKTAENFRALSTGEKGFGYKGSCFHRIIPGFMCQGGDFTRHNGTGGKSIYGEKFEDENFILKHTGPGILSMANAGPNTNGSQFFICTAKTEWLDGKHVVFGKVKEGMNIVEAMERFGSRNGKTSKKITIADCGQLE
experimental_details: KRAS-BRAF with CYPA (500 nM) interaction assay (TR-FRET), G12D
Format: biochemical
experimental_conditions: 3 hours
test_readout: IC50

{"compound": "CCn1c(-c2cc(N3CCN(C)CC3)cnc2[C@H](C)OC)c2c3cc(c(F)cc31)-c1csc(n1)C[C@H](NC(=O)[C@H](C(C)C)N(C)C(=O)N1CC(C#CC(F)(F)F)C1)C(=O)N1CCC[C@H](N1)C(=O)OCC(C)(C)C2 (atropisomer, axis not shown; (M)) [Example 14]", "IC50": "4.3 µM"}

*Q* Query (compound): CO[C@@H](C)c1ncc(N2CCN(CC(F)(F)F)CC2)cc1-c1c2c3cc(c(F)cc3n1CC(F)(F)F)-c1csc(n1)C[C@H](NC(=O)[C@H](C(C)C)N(C)C(=O)[C@H]1C[C@@H](C#CC(F)(F)F)C1)C(=O)N1CCC[C@H](N1)C(=O)OCC(C)(C)C2 (atropisomer, axis not shown; (M)) [Example 7] ; field requested: IC50
*A* > 10 µM

*Q* Lookup CCn1c(-c2cc(N3CCN(CC(F)(F)F)CC3)cnc2[C@H](C)OC)c2c3cc(c(F)cc31)-c1csc(n1)C[C@H](NC(=O)[C@H](C(C)C)N(C)C(=O)[C@H]1C[C@@H](C#CC(F)(F)F)C1)C(=O)N1CCC[C@H](N1)C(=O)OCC(C)(C)C2 (atropisomer, axis not shown; (M)) [Example 8]
*A* > 10 µM

###

experimental_details: GSH Reaction Rates (inherent GSH reactivity)
Type: in vitro ADME
experimental_conditions: pH 7.4
Experimental: Glutathione (GSH) is a tripeptide found in most of the tissues, especially in high concentrations in the liver, and plays critical roles in protecting cells from oxidative damage and the toxicity of xenobiotic electrophiles, and maintaining redox homeostasis. […] Therefore Strategy to minimize the GSH metabolism is very critical. […] Thus T1/2 in inherent GSH reaction assay was determined for the screening of candidates. […]
test_readout: half-life at 1 μM (h)
Give the number; h is assumed, so skip it.

*Q* Query (compound): CC#CC(=O)N1CC[C@H](C(=O)N(C)[C@H](C(=O)N[C@H]2Cc3nc(cs3)-c3ccc4c(c3)c(c(-c3cccnc3[C@H](C)OC)n4CC)CC(C)(C)COC(=O)[C@@H]3CCCN(N3)C2=O)C(C)C)C1 [Example A168, reference compound] ; field requested: half-life at 1 μM
*A* 28.9

###

System: phosphorylation of ERK, KRAS G12C in NCI-H358 cells
experimental_details: pERK inhibition assay, G12C
Type: cell-based, human
experimental_conditions: Homo sapiens; NCI-H358, 4 hours of incubation
test_readout: IC50 (µM)

{"compound": "CO[C@@H](C)c1ncc(N2CCN(CC(F)(F)F)CC2)cc1-c1c2c3cc(c(F)cc3n1CC(F)(F)F)-c1csc(n1)C[C@H](NC(=O)[C@H](C(C)C)N(C)C(=O)[C@H]1C[C@@H](C#CC(F)(F)F)C1)C(=O)N1CCC[C@H](N1)C(=O)OCC(C)(C)C2 (atropisomer, axis not shown; (M))", "assayed_target": "phosphorylation of ERK, KRAS G12C in NCI-H358 cells", "IC50 [µM]": 1.1}

a = CO[C@@H](C)c1ncc(N2CCN(C)CC2)cc1-c1c2c3cc(c(F)cc3n1CC(F)(F)F)-c1csc(n1)C[C@H](NC(=O)[C@H](C(C)C)N(C)C(=O)c1ccc(C#CC(F)(F)F)cc1)C(=O)N1CCC[C@H](N1)C(=O)OCC(C)(C)C2 (atropisomer, axis not shown; (M))
b = CCn1c(-c2cc(N3CCOCC3)cnc2[C@H](C)OC)c2c3cc(c(F)cc31)-c1csc(n1)C[C@H](NC(=O)[C@H](C(C)C)N(C)C(=O)N1CC(C#CC(F)(F)F)C1)C(=O)N1CCCC(N1)C(=O)OCC(C)(C)C2 (stereo partly drawn)
*Q* Which has the smaller recorded IC50, a or b ? // output: label of the selected item
*A* a
